# Target or system: PI4Kβ (PF3D7_0509800) (Plasmodium falciparum, UniProt Q8I406)
# Sequence (Q8I406 1-1559): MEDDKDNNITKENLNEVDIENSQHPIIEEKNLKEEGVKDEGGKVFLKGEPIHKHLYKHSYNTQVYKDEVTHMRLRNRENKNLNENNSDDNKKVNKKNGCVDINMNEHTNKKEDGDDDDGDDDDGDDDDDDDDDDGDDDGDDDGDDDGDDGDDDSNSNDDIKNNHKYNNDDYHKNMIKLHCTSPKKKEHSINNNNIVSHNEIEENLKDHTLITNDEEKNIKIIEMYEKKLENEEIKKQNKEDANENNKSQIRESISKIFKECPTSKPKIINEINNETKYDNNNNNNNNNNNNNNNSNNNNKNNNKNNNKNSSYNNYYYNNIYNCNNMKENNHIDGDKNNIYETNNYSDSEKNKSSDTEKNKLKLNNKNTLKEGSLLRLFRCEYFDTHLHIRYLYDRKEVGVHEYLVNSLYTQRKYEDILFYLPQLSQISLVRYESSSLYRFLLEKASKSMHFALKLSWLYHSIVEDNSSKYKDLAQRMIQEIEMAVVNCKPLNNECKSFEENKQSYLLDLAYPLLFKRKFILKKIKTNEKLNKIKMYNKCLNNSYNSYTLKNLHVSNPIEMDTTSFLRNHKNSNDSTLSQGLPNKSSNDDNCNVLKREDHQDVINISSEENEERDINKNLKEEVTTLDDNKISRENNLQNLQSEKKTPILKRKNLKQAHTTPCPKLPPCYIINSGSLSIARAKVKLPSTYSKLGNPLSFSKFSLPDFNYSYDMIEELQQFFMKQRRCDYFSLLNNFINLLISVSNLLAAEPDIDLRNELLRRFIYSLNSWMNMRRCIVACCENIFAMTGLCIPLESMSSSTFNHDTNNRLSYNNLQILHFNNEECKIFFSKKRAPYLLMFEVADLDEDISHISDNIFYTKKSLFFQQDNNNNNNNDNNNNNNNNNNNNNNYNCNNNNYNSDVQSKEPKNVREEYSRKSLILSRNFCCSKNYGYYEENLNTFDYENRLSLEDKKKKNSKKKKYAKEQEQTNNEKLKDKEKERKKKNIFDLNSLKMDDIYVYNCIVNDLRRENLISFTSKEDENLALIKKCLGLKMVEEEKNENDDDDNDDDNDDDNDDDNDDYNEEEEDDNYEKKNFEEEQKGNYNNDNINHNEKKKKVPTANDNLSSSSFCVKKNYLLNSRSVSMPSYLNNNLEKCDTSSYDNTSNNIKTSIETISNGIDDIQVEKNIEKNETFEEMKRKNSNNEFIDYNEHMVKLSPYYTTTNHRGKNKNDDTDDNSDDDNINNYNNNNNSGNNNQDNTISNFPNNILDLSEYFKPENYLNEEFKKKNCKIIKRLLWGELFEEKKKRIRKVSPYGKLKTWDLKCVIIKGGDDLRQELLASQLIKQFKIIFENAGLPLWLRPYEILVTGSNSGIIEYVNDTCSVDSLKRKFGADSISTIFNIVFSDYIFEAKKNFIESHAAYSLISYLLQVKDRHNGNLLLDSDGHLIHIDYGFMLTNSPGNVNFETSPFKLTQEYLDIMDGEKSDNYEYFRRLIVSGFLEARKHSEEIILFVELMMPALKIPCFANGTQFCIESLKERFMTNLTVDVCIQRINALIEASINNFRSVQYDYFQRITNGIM
# Run description: Kinobead chemoproteomic competition binding, Pf3D7 ABS extract
# Setup conditions: read-out: Kd app for PI4Kβ; Kinobeads, P. falciparum ABS extract
Experimental endpoint: Kd

Could you share which Kd value was measured for CC(C)n1nc(-c2ccc3oc(N)nc3c2)c2c(N)ncnc21 ?
≤ 50 nM

###

# Target or system: protein kinase 2 (PK2; PF3D7_1238900) (Plasmodium falciparum, UniProt Q8I534)
# Sequence (Q8I534 1-509): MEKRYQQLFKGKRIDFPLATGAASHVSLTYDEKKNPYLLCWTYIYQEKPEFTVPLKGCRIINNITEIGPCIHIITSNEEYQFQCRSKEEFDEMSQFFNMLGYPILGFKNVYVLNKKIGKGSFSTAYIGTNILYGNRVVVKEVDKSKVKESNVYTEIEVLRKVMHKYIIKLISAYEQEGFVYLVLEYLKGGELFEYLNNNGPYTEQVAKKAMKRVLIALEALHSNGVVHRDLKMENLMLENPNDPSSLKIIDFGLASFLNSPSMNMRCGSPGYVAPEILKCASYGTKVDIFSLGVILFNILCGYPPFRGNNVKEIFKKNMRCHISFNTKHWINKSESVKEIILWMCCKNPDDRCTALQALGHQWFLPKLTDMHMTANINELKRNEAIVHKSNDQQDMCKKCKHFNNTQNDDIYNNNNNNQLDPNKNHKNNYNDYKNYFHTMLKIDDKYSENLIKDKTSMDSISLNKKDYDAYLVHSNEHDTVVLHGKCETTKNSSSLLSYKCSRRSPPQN
# Run description: Kinobead chemoproteomic competition binding, Pf3D7 ABS extract
# Setup conditions: read-out: Kd app for PK2; Kinobeads, P. falciparum ABS extract
Experimental endpoint: Kd

API: value(readout= Kd, system= protein kinase 2 (PK2; PF3D7_1238900) (Plasmodium falciparum, UniProt Q8I534), query= CC(C)n1nc(-c2ccc3oc(N)nc3c2)c2c(N)ncnc21 )
< 1000 nM

###

# Run description: in vitro
# Setup conditions: human
Experimental endpoint: IC50 (nM)
Response body: numeric value in nM, unit text excluded.

If you can, please state the reported IC50 value of COc1ccc(C[C@H](N)C(=O)N[C@H]2[C@@H](O)[C@H](n3cnc4c(N(C)C)ncnc43)O[C@@H]2CO)cc1 [Puromycin] .
588
